Test system: M059J (Glioblastoma)
EXPERIMENT_SUMMARY: combination Emax (second highest fraction inhibited in the dose matrix, 72 h); higher = more inhibition; extreme values may be limits of the assay
RECORDED_ENDPOINT: combination Emax
Please give only the number in your answer, with no unit.

Please review the following examples before continuing.
{"MOLECULE": "COc1nnc2ccc(N3CCC(c4ccc(OCCN5CCN(C)C(=O)[C@H]5C)cc4)CC3)nn12 [AZD5153] + Cn1cnc2c(F)c(Nc3ccc(Br)cc3Cl)c(C(=O)NOCCO)cc21 [Selumetinib] (first compound max 1 µM, 7x7, partner max 10 µM)", "RECORDED_ENDPOINT": "combination Emax", "OBSERVED_VALUE": 0.618}
{"MOLECULE": "CN(C)CCCOc1ccc(-c2ccc3ncc4c(c3c2)n(C2CCOCC2)c(=O)n4C)cn1 [AZD0156] + C[C@@H]1COCCN1C2=NC(=NC(=C2)C3(CC3)[S@](=N)(=O)C)C4=C5C=CNC5=NC=C4 [AZD6738] (first compound max 1 µM, 7x7, partner max 10 µM)", "RECORDED_ENDPOINT": "combination Emax", "OBSERVED_VALUE": 0.637}

Let us examine a further case.
query: For the molecule CCc1c2c(nc3ccc(O)cc13)-c1cc3c(c(=O)n1C2)COC(=O)[C@]3(O)CC [SN-38] + CN(C)CCCOc1ccc(-c2ccc3ncc4c(c3c2)n(C2CCOCC2)c(=O)n4C)cn1 [AZD0156] (first compound max 0.3 µM, 7x7, partner max 1 µM) , report combination Emax.
result: 0.978
